- assay.target: KCC2 (Homo sapiens)
- procedure.text: KCC2 thallium transport FLIPR-based assay (Tl+ influx in HEK293 cells expressing KCC2)
- condition.details: 90 min compound incubation at RT, thallium flux at 120 s used to determine EC50
pEC50: −log10 of the molar value.

{"compound": "C[C@@H]1CN(c2nc(Nc3ccc(C4CCC4)cc3)c3c(n2)C(=O)N(CCN(C)C)C3)CCO1", "pEC50": 5.42}
{"compound": "C[C@@H]1CN(c2nc(Nc3ccc(C4CCCCC4)cc3)c3ccc[n+]([O-])c3n2)CCO1", "pEC50": 5.42}
{"compound": "CCCCCCCOc1ccc(-c2ccc(Nc3nc(N4CCOC(C5CC5)C4)nc4c3COC4)cc2)cc1 (stereo not shown)", "pEC50": 5.85}
{"compound": "C[C@@H]1CN(c2nc(Nc3ccc(C4CCCCC4)cc3)c3cc(C#N)cnc3n2)CCO1", "pEC50": 6.00}
{"compound": "CC(C)N1Cc2c(Nc3ccc(C4CCCCC4)cc3)nc(N3CCOC[C@H]3C(=O)O)nc2C1=O", "pEC50": 5.03}
{"compound": "CC(C)N1Cc2c(Nc3ccc(-c4ccc(Cl)c(Cl)c4)cc3)nc(N3CCOCC3)nc2C1=O", "pEC50": 5.08}
{"compound": "CC(C)N1Cc2c(Nc3ccc(C4CCCCC4)cc3)nc(-c3ccncc3)nc2C1=O", "pEC50": 5.89}
{"compound": "CC(C)N1Cc2c(Nc3ccc(C4CCCCC4)cc3)nc(N3CCOC(CC(F)(F)F)C3)nc2C1=O (stereo not shown)", "pEC50": 6.13}
{"compound": "C#CCCC1(CCOc2ccc(-c3ccc(Nc4nc(C5=CCOCC5)nc5c4CN(C(C)C)C5=O)cc3)cc2)N=N1", "pEC50": 5.61}
{"compound": "CC(C)c1ccc(Nc2nc(N3C[C@H](C)O[C@@H](C)C3)nc3c2CN(C(C)C)C3=O)cc1", "pEC50": 5.27}
{"compound": "CC(C)N1Cc2c(Nc3ccc(C(F)(F)C(F)(F)F)cc3)nc(N3CCOC(C4CC4)C3)nc2C1=O (stereo not shown)", "pEC50": 5.42}
{"compound": "C[C@@H]1CN(c2nc(Nc3ccc(C4CCCCC4)cc3)c3cccnc3n2)CCO1", "pEC50": 5.53}
{"compound": "CC(=O)NCCC1CN(c2nc(Nc3ccc(C4CCCCC4)cc3)c3c(n2)C(=O)N(C(C)C)C3)CCO1 (stereo not shown)", "pEC50": 5.00}
{"compound": "CC(C)N1Cc2c(Nc3ccc(C(F)(F)C(F)(F)F)cc3)nc(N3CCO[C@H](C)C3)nc2C1=O", "pEC50": 5.26}
{"compound": "COC(=O)c1cnc2nc(N3CCO[C@H](C)C3)nc(Nc3ccc(C4CCCCC4)cc3)c2c1", "pEC50": 6.15}
{"compound": "CC(C)C1CN(c2nc(Nc3ccc(C4CCCCC4)cc3)c3c(n2)C(=O)N(C(C)C)C3)CCO1 (stereo not shown)", "pEC50": 5.86}

* * *

- assay.target: KCC2 (Homo sapiens, UniProt Q9H2X9)
- Sequence (Q9H2X9 whole entry): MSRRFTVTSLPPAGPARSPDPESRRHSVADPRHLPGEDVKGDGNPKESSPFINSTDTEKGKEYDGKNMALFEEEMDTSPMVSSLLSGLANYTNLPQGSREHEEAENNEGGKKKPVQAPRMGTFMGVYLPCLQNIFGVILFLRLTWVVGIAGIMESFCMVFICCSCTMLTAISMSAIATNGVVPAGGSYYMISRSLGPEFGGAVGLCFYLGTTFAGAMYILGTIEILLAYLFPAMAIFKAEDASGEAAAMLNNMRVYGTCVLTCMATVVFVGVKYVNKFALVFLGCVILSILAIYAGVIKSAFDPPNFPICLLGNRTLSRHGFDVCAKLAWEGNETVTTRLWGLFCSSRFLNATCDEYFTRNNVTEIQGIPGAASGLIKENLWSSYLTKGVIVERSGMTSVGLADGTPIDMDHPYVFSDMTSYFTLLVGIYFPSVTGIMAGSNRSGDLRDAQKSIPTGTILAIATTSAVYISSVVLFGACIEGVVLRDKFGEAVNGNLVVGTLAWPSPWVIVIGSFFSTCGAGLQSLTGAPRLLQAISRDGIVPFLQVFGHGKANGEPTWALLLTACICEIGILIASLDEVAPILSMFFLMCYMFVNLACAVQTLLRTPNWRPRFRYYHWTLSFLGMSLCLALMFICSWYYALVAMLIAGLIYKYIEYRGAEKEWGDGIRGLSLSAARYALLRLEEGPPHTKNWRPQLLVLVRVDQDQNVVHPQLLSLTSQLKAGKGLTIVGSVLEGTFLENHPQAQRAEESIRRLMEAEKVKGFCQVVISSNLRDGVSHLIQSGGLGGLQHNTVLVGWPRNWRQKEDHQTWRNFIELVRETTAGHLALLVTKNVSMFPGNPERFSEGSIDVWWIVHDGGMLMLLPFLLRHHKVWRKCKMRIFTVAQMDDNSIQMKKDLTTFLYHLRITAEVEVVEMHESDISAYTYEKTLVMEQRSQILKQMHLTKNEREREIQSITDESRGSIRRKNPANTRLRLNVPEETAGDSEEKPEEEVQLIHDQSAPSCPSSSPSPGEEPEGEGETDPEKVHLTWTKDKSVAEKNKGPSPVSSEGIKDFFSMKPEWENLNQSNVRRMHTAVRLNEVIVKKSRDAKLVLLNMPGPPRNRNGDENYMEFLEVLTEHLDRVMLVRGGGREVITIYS
- procedure.text: KCC2 thallium transport FLIPR-based assay (Tl+ influx in HEK293 cells expressing KCC2)
- condition.details: 90 min compound incubation at RT, thallium flux at 120 s used to determine EC50

{"compound": "CC(C)N1Cc2c(Nc3ccc(C4CCCCC4)cc3)nc(N3CCO[C@H](C)C3)nc2C1=O", "assay.target": "KCC2 (Homo sapiens, UniProt Q9H2X9)", "unit.label": "µM", "EC50": 1.71}
{"compound": "Cc1cc(-c2nc(Nc3ccc(C4CCCCC4)cc3)c3c(n2)C(=O)N(C(C)C)C3)ccn1", "assay.target": "KCC2 (Homo sapiens, UniProt Q9H2X9)", "unit.label": "µM", "EC50": 0.901}
{"compound": "C[C@@H]1CN(c2nc(Nc3ccc(C4CCCCC4)cc3)c3c(n2)C(=O)N(CCN(C)C)C3)CCO1", "assay.target": "KCC2 (Homo sapiens, UniProt Q9H2X9)", "unit.label": "µM", "EC50": 2.73}
{"compound": "CC(C)N1Cc2c(Nc3ccc(C4CCCCC4)cc3)nc(-c3cnco3)nc2C1=O", "assay.target": "KCC2 (Homo sapiens, UniProt Q9H2X9)", "unit.label": "µM", "EC50": 6.3}
{"compound": "CC(C)c1ccc(Nc2nc(N3CCOCC3)nc3c2CN(C(C)C)C3=O)cc1", "assay.target": "KCC2 (Homo sapiens, UniProt Q9H2X9)", "unit.label": "µM", "EC50": 5.83}
{"compound": "CC(C)N1Cc2c(Nc3ccc(C4CCCCC4)cc3)nc(N3CCOC(CO)C3)nc2C1=O (centres unmarked)", "assay.target": "KCC2 (Homo sapiens, UniProt Q9H2X9)", "unit.label": "µM", "EC50": 4.81}
{"compound": "CC(C)N1Cc2c(Nc3ccc(C4CCCCC4)cc3)nc(N(C)Cc3cnccn3)nc2C1=O", "assay.target": "KCC2 (Homo sapiens, UniProt Q9H2X9)", "unit.label": "µM", "EC50": 5.01}
{"compound": "C#CCN1Cc2c(Nc3ccc(C(C)C)cc3)nc(N3CCOCC3)nc2C1=O", "assay.target": "KCC2 (Homo sapiens, UniProt Q9H2X9)", "unit.label": "µM", "EC50": 6.89}

The measurements presented in this section are drawn from patent US12617795B2.
